# run.description: Solubility (buffer pH 7.4)
# Format: physicochemical
# condition.notes: read-out: S
measure: solubility
Please answer in the form of a number followed by its unit of measurement.

// query Give its solubility value. Item: C[C@H]1[C@H](N)CN1c1c(F)cc2c(=O)c(C(=O)O)cn(C3CC3)c2c1Cl
// result 12 µg/mL

// query Give its solubility value. Item: C[C@H]1N(c2c(F)cc3c(=O)c(C(=O)O)cn(C4CC4)c3c2F)C[C@]1(C)N
// result 3.3 µg/mL

// query Give its solubility value. Item: C[C@H]1[C@H](N)CN1c1cc2c(cc1F)c(=O)c(C(=O)O)cn2C1CC1
// result 9.9 µg/mL

Go through the list and state solubility for each entry.
1. NC1CN(c2c(F)cc3c(=O)c(C(=O)O)cn(C4CC4)c3c2F)C1
2. CC1(N)CN(c2c(F)cc3c(=O)c(C(=O)O)cn(C4CC4)c3c2Cl)C1
3. C[C@H]1[C@H](N)CN1c1c(F)cc2c(=O)c(C(=O)O)cn(-c3ccc(F)cc3)c2c1F
4. CN[C@H]1CN(c2cc3c(cc2F)c(=O)c(C(=O)O)cn3C2CC2)[C@@H]1C
5. C[C@H]1[C@H](N)CN1c1nc2c(cc1F)c(=O)c(C(=O)O)cn2C1CC1

// result
1. 1.8 µg/mL
2. 1.7 µg/mL
3. 11.2 µg/mL
4. 9.2 µg/mL
5. 20.3 µg/mL

----------
# Tested on: Morganella morganii
# run.description: In vitro minimum inhibitory concentration for Morganella morganii ATCC 8019
# Type: functional
measure: MIC (µg/mL)
Answers are plain numbers, in µg/mL.

Look over these answered cases.
// query Give its MIC value. Item: CN[C@H]1CN(c2c(F)cc3c(=O)c(C(=O)O)cn(C4CC4)c3c2F)[C@@H]1C
// result 0.06

// query Give its MIC value. Item: C[C@H]1N(c2cc3c(cc2F)c(=O)c(C(=O)O)cn3C2CC2)C[C@]1(C)O
// result 0.5

// query Give its MIC value. Item: C[C@H]1[C@H](N)CN1c1cc2c(cc1F)c(=O)c(C(=O)O)cn2-c1ccc(F)cc1F [CETEFLOXACIN]
// result 0.25

Please find the next molecule below.
// query Give its MIC value. Item: CC1(C)[C@@H](N)CN1c1c(F)cc2c(=O)c(C(=O)O)cn(C3CC3)c2c1F
// result 0.12

----------
Field: AUC. Provide a value for each of the compounds that follow.
# run.description: AUC (0-4 hr) ug/ml/h
# Assay type: ADME, cell-free
# Parameters: time < 4 hr; concentration or dose not given beside the values
# condition.notes: plasma

Look over these answered cases.
// query Give its AUC value. Item: C[C@H]1[C@@H](N)CN1c1cc2c(cc1F)c(=O)c(C(=O)O)cn2C1CC1
// result 3700 ng·h/mL

// query Give its AUC value. Item: C[C@H]1[C@H](N)CN1c1nc2c(cc1F)c(=O)c(C(=O)O)cn2C(C)(C)C
// result 16500 ng·h/mL

// query Give its AUC value. Item: C[C@H]1[C@H](N)CN1c1nc2c(cc1F)c(=O)c(C(=O)O)cn2-c1ccc(F)cc1F
// result 25800 ng·h/mL

Go through the list and state AUC for each entry.
1. C[C@H]1[C@H](N)CN1c1cc2c(cc1F)c(=O)c1c(=O)[nH]sc1n2C1CC1
2. C[C@@H]1[C@@H](N(C)C)CN1c1c(F)cc2c(=O)c(C(=O)O)cn(C3CC3)c2c1F
3. C[C@H]1[C@H](N)CN1c1c(F)cc2c(=O)c(C(=O)O)cn(-c3ccc(F)cc3F)c2c1Cl
4. C[C@H]1[C@H](N)CN1c1cc2c(cc1F)c(=O)c(C(=O)O)cn2-c1ccc(F)cc1
5. C[C@H]1[C@H](N)CN1c1c(F)cc2c(=O)c(C(=O)O)cn(-c3ccc(F)cc3)c2c1F

// result
["16200 ng·h/mL", "23200 ng·h/mL", "32300 ng·h/mL", "16900 ng·h/mL", "31400 ng·h/mL"]

----------
# Test system: Mus musculus
# run.description: Evaluation of efficacy on systemic infections Escherichia coli HM-42, after oral administration in mice
# Assay type: functional
measure: ED50
Please answer in the form of a number followed by its unit of measurement.

Look over these answered cases.
// query # query: ED50 | item C[C@H]1[C@H](N)CN1c1cc2c(cc1F)c(=O)c(C(=O)O)cn2-c1ccc(F)cc1 | system: Mus musculus
// result 2.9 mg/kg

// query # query: ED50 | item C[C@H]1[C@H](N)CN1c1nc2c(cc1F)c(=O)c(C(=O)O)cn2-c1ccc(F)cc1F | system: Mus musculus
// result 3.3 mg/kg

Go through the list and state ED50 for each entry.
1. C[C@H]1[C@H](N)CN1c1c(F)c(N)c2c(=O)c(C(=O)O)cn(C3CC3)c2c1F
2. C[C@H]1[C@H](N)CN1c1c(F)cc2c(=O)c(C(=O)O)cn(-c3ccc(F)cc3F)c2c1F

// result
1. 4.2 mg/kg
2. 2.3 mg/kg

----------
# Tested on: Staphylococcus aureus
# run.description: In vitro minimum inhibitory concentration for Staphylococcus aureus ATCC 25178
# Format: functional
measure: MIC (µg/mL)
Numbers only, in µg/mL.

Go through the list and state MIC for each entry.
1. C[C@H]1[C@H](N)CN1c1cc2c(cc1F)c(=O)c(C(=O)O)cn2-c1ccc(F)cc1
2. C[C@H]1[C@H](N)CN1c1c(F)cc2c(=O)c(C(=O)O)cn(-c3ccc(F)cc3)c2c1Cl
3. CC[C@H]1[C@@H](O)CN1c1cc2c(cc1F)c(=O)c(C(=O)O)cn2C1CC1
4. C[C@H]1[C@@H](O)CN1c1c(F)cc2c(=O)c(C(=O)O)cn(C3CC3)c2c1F

// result
0.25
0.03
1
0.25

----------
# run.description: HPLC capacity factor (k')
# Format: ADME
measure: Log k'
Numbers only.

Look over these answered cases.
// query Give its Log k' value. Item: CC1(N)CN(c2nc3c(cc2F)c(=O)c(C(=O)O)cn3CCF)C1
// result -0.1706

// query Give its Log k' value. Item: CCn1cc(C(=O)O)c(=O)c2cc(F)c(N3C[C@@H](N)[C@@H]3C)nc21
// result -0.1061

// query Give its Log k' value. Item: C[C@H]1[C@H](N)CN1c1c(F)cc2c(=O)c(C(=O)O)cn(C3CC3)c2c1F
// result 0.0755

// query Give its Log k' value. Item: C[C@H]1[C@H](N)CN1c1c(F)cc2c(=O)c(C(=O)O)cn3c2c1SCC3
// result -0.1195

Go through the list and state Log k' for each entry.
1. CC1(CN)CN(c2cc3c(cc2F)c(=O)c(C(=O)O)cn3C2CC2)C1
2. NC1CN(c2c(F)cc3c(=O)c(C(=O)O)cn(C4CC4)c3c2F)C1
3. CC1(N)CN(c2c(F)cc3c(=O)c(C(=O)O)cn(CCF)c3c2Cl)C1

// result
-0.0782
-0.0438
-0.0332

Go through the list and state Log k' for each entry.
1. CCNC[C@H]1CN(c2c(F)cc3c(=O)c(C(=O)O)cn(C4CC4)c3c2F)[C@@H]1C
2. CN(C)C1CN(c2nc3c(cc2F)c(=O)c(C(=O)O)cn3C2CC2)C1
3. C[C@@H]1[C@@H](O)CN1c1cc2c(cc1F)c(=O)c(C(=O)O)cn2C1CC1

// result
[0.025, 0.464, 0.407]

Go through the list and state Log k' for each entry.
1. C[C@@H]1[C@@H](O)CN1c1c(F)cc2c(=O)c(C(=O)O)cn(C3CC3)c2c1F
2. CN[C@H]1CN(c2c(F)cc3c(=O)c(C(=O)O)cn(C4CC4)c3c2F)[C@@H]1C
3. NCC1CN(c2c(F)cc3c(=O)c(C(=O)O)cn(C4CC4)c3c2F)C1
4. C[C@H]1[C@H](N)CN1c1cc2c(cc1F)c(=O)c1c(=O)[nH]sc1n2C1CC1

// result
1. 0.518
2. 0.292
3. -0.196
4. 0.065

----------
# run.description: HPLC capacity factor (k')
# Assay type: ADME
Field: Log k'. Provide a value for each of the molecules that follow.
Answers are plain numbers.

Go through the list and state Log k' for each entry.
1. CCn1cc(C(=O)O)c(=O)c2cc(F)c(N3C[C@@H](N)[C@@H]3C)cc21
2. C[C@@H]1[C@@H](CN)CN1c1c(F)cc2c(=O)c(C(=O)O)cn(C3CC3)c2c1F
3. C[C@H]1[C@@H](N)CN1c1cc2c(cc1F)c(=O)c(C(=O)O)cn2C1CC1

// result
[-0.0915, -0.0397, 0.0457]

Go through the list and state Log k' for each entry.
1. CC1(N)CN(c2cc3c(cc2F)c(=O)c(C(=O)O)cn3CCF)C1
2. CC1(CN)CN(c2c(F)cc3c(=O)c(C(=O)O)cn(C4CC4)c3c2F)C1

// result
[0.0374, -0.0438]

Go through the list and state Log k' for each entry.
1. CCn1cc(C(=O)O)c(=O)c2cc(F)c(N3C[C@@H](N)[C@@H]3C)c(F)c21
2. CC[C@H]1[C@@H](N)CN1c1cc2c(cc1F)c(=O)c(C(=O)O)cn2C1CC1
3. C[C@H]1[C@H](N)CN1c1cc2c(cc1F)c(=O)c(C(=O)O)cn2CCF
4. C[C@H]1[C@H](N)CN1c1c(F)cc2c(=O)c(C(=O)O)cn(-c3ccc(F)cc3F)c2c1Cl

// result
0.0145
0.1708
-0.1459
0.3553
